Could you please report measured pIC50 for the items listed next?
pIC50 here is simply -log10 of the concentration when that concentration is written in mol/L.

For the record Cc1cc2nc(N)[nH]c(=O)c2n1Cc1ccc(Br)cc1 , what value of pIC50 is listed for Thymidylate synthase (Escherichia coli, UniProt C3SWJ7)?
5.12

For the record Cc1cc2nc(N)[nH]c(=O)c2n1Cc1ccc(Cl)c(Cl)c1 , what value of pIC50 is listed for Thymidylate synthase (Escherichia coli, UniProt C3SWJ7)?
4.57

For the record COc1ccc(Cn2c(C)cc3nc(N)[nH]c(=O)c32)cc1 , what value of pIC50 is listed for Thymidylate synthase (Escherichia coli, UniProt C3SWJ7)?
4.82

For the record Cc1cc2nc(N)[nH]c(=O)c2n1Cc1ccc(C(=O)N[C@@H](CCC(=O)O)C(=O)O)cc1 , what value of pIC50 is listed for Thymidylate synthase (Escherichia coli, UniProt C3SWJ7)?
7.16

For the record Cc1cc2nc(N)[nH]c(=O)c2n1Cc1ccncc1 , what value of pIC50 is listed for Thymidylate synthase (Escherichia coli, UniProt C3SWJ7)?
4.92

----------
Assay overview: Selectivity ratio of IC50 for Toxoplasma gondii DHFR over IC50 for human recombinant DHFR
Quantity measured: Ratio IC50

Which value of Ratio IC50 has been reported for Cc1cc2nc(N)[nH]c(=O)c2n1Cc1ccc(Cl)cc1 in the records?
> 100

Which value of Ratio IC50 has been reported for Cc1cc2nc(N)[nH]c(=O)c2n1Cc1ccc([N+](=O)[O-])cc1 in the records?
100

Which value of Ratio IC50 has been reported for COc1ccc(Cn2c(C)cc3nc(N)[nH]c(=O)c32)cc1 in the records?
> 10

Which value of Ratio IC50 has been reported for Cc1cc2nc(N)[nH]c(=O)c2n1Cc1ccncc1 in the records?
> 1.8

Which value of Ratio IC50 has been reported for Cc1cc2nc(N)[nH]c(=O)c2n1Cc1cc(Br)cc(Br)c1 in the records?
> 1

Which value of Ratio IC50 has been reported for Cc1cc2nc(N)[nH]c(=O)c2n1Cc1ccc(C(=O)N[C@@H](CCC(=O)O)C(=O)O)cc1 in the records?
5.2

----------
Assay overview: Selectivity ratio of IC50 for Toxoplasma gondii DHFR over IC50 for human recombinant DHFR
Could you please report measured Ratio IC50 for the items listed next?

Which value of Ratio IC50 has been reported for Cc1cc2nc(N)[nH]c(=O)c2n1Cc1ccc(F)cc1 in the records?
> 20.5

Which value of Ratio IC50 has been reported for Cc1cc2nc(N)[nH]c(=O)c2n1Cc1cc(Cl)cc(Cl)c1 in the records?
> 2.1

Which value of Ratio IC50 has been reported for Cc1cc2nc(N)[nH]c(=O)c2n1Cc1ccc(Cl)c(Cl)c1 in the records?
> 20

Which value of Ratio IC50 has been reported for Cc1cc2nc(N)[nH]c(=O)c2n1Cc1ccccc1 in the records?
> 10

Which value of Ratio IC50 has been reported for Cc1cc2nc(N)[nH]c(=O)c2n1Cc1ccc(Br)cc1 in the records?
> 130

Which value of Ratio IC50 has been reported for Cc1cc2nc(N)[nH]c(=O)c2n1Cc1ccc(OC(F)(F)F)cc1 in the records?
> 117

----------
Test system: Escherichia coli
Assay overview: Inhibition of Escherichia coli DHFR at >[…] uM
Quantity measured: inhibition (%)
Field: numeric (%). Do not append units.

Which value of inhibition has been reported for Cc1cc2nc(N)[nH]c(=O)c2n1Cc1ccc(C(=O)N[C@@H](CCC(=O)O)C(=O)O)cc1 in the records?
23

Which value of inhibition has been reported for Cc1cc2nc(N)[nH]c(=O)c2n1Cc1ccc(OC(F)(F)F)cc1 in the records?
0

Which value of inhibition has been reported for Cc1cc2nc(N)[nH]c(=O)c2n1Cc1cc(Br)cc(Br)c1 in the records?
0

Which value of inhibition has been reported for Cc1cc2nc(N)[nH]c(=O)c2n1Cc1ccc(Cl)c(Cl)c1 in the records?
0

Which value of inhibition has been reported for Cc1cc2nc(N)[nH]c(=O)c2n1Cc1ccc(Cl)cc1 in the records?
0

----------
This document collects IC50 values reported for Thymidylate synthase (Homo sapiens, UniProt P04818).
Field: numeric (nM). Do not append units.

Which value of IC50 has been reported for Cc1cc2nc(N)[nH]c(=O)c2n1Cc1ccc(C(=O)N[C@@H](CCC(=O)O)C(=O)O)cc1 in the records?
46

Which value of IC50 has been reported for COc1ccc(Cn2c(C)cc3nc(N)[nH]c(=O)c32)cc1 in the records?
1500

Which value of IC50 has been reported for Cc1cc2nc(N)[nH]c(=O)c2n1Cc1ccccc1 in the records?
20000

Which value of IC50 has been reported for Cc1cc2nc(N)[nH]c(=O)c2n1Cc1ccncc1 in the records?
2300

Which value of IC50 has been reported for Cc1cc2nc(N)[nH]c(=O)c2n1Cc1ccc(OC(F)(F)F)cc1 in the records?
1300

Which value of IC50 has been reported for Cc1cc2nc(N)[nH]c(=O)c2n1Cc1cc(Br)cc(Br)c1 in the records?
10000

----------
Assay overview: Inhibition of Toxoplasma gondii thymidylate synthase
Quantity measured: pIC50
pIC50 here is simply -log10 of the concentration when that concentration is written in mol/L.

Which value of pIC50 has been reported for Cc1cc2nc(N)[nH]c(=O)c2n1Cc1ccc(Br)cc1 in the records?
4.74

Which value of pIC50 has been reported for Cc1cc2nc(N)[nH]c(=O)c2n1Cc1ccc(OC(F)(F)F)cc1 in the records?
4.89

Which value of pIC50 has been reported for Cc1cc2nc(N)[nH]c(=O)c2n1Cc1ccc([N+](=O)[O-])cc1 in the records?
4.55

Which value of pIC50 has been reported for COc1ccc(Cn2c(C)cc3nc(N)[nH]c(=O)c32)cc1 in the records?
4.77

Which value of pIC50 has been reported for Cc1cc2nc(N)[nH]c(=O)c2n1Cc1ccncc1 in the records?
4.82

----------
Study target: Thymidylate synthase (Escherichia coli, UniProt C3SWJ7)
Sequence (C3SWJ7 whole entry): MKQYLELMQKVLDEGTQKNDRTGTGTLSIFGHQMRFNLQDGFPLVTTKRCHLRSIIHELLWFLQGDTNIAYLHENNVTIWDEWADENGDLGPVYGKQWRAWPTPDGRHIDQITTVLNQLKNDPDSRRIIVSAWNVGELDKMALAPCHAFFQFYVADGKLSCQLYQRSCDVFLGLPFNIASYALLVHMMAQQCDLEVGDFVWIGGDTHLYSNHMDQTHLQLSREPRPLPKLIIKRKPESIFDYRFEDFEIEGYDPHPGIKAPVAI
pIC50: −log10 of the molar value.
Could you please report measured pIC50 for the items listed next?

For the record Cc1cc2nc(N)[nH]c(=O)c2n1Cc1ccccc1 , what value of pIC50 is listed for Thymidylate synthase (Escherichia coli, UniProt C3SWJ7)?
< 4.41

For the record Cc1cc2nc(N)[nH]c(=O)c2n1Cc1cc(Cl)cc(Cl)c1 , what value of pIC50 is listed for Thymidylate synthase (Escherichia coli, UniProt C3SWJ7)?
< 4.59

For the record Cc1cc2nc(N)[nH]c(=O)c2n1Cc1cc(Br)cc(Br)c1 , what value of pIC50 is listed for Thymidylate synthase (Escherichia coli, UniProt C3SWJ7)?
< 4.70
